assay_setup: human gut metagenome, 24 h, 2 µM; also: call rule not given here
measurement_label: Bacterial Biotransformation

compound="CC(Oc1c(Cl)cccc1Cl)C1=NCCN1 (stereo not drawn) [LOFEXIDINE]" readout_value="Compound NOT metabolized"
compound="CN1C[C@H](C(=O)N[C@]2(C)O[C@@]3(O)[C@@H]4CCCN4C(=O)[C@H](Cc4ccccc4)N3C2=O)C=C2c3cccc4[nH]cc(c34)C[C@H]21.CN1C[C@H](C(=O)N[C@]2(C)O[C@@]3(O)[C@@H]4CCCN4C(=O)[C@H](Cc4ccccc4)N3C2=O)C=C2c3cccc4[nH]cc(c34)C[C@H]21.O=C(O)C(O)C(O)C(=O)O [ERGOTAMINE TARTRATE]" readout_value="Compound metabolized"
compound="CC[C@@H](CO)NC(=O)[C@@H]1C=C2c3cccc4c3c(cn4C)C[C@H]2N(C)C1.O=C(O)/C=C\\C(=O)O [METHYSERGIDE MALEATE]" readout_value="Compound NOT metabolized"
compound="CN(C(=O)CN(CCO)CC(=O)N(C)C(C)(C)Cc1ccccc1)C(C)(C)Cc1ccccc1 [OXETHAZAINE]" readout_value="Compound metabolized"
compound="COc1ccccc1N1CCN(CC(O)COc2cccc3ccccc23)CC1 (stereo not drawn) [NAFTOPIDIL]" readout_value="Compound NOT metabolized"
compound="CNCCC(Oc1ccc(C(F)(F)F)cc1)c1ccccc1 (stereo not drawn) [FLUOXETINE]" readout_value="Compound metabolized"
compound="Br.CN(C)CCCC1(c2ccc(F)cc2)OCc2cc(C#N)ccc21 (stereo not drawn) [CITALOPRAM HYDROBROMIDE]" readout_value="Compound metabolized"
compound="Cc1nc2n(c(=O)c1CCN1CCC(c3noc4cc(F)ccc34)CC1)CCCC2 [RISPERIDONE]" readout_value="Compound metabolized"
